- TESTED_TARGET: rat TRPV2 (Rattus norvegicus, UniProt Q9WUD2)
- Construct: expressed in transfected cells; host or cells: HEK-293
- Sequence (Q9WUD2 whole entry): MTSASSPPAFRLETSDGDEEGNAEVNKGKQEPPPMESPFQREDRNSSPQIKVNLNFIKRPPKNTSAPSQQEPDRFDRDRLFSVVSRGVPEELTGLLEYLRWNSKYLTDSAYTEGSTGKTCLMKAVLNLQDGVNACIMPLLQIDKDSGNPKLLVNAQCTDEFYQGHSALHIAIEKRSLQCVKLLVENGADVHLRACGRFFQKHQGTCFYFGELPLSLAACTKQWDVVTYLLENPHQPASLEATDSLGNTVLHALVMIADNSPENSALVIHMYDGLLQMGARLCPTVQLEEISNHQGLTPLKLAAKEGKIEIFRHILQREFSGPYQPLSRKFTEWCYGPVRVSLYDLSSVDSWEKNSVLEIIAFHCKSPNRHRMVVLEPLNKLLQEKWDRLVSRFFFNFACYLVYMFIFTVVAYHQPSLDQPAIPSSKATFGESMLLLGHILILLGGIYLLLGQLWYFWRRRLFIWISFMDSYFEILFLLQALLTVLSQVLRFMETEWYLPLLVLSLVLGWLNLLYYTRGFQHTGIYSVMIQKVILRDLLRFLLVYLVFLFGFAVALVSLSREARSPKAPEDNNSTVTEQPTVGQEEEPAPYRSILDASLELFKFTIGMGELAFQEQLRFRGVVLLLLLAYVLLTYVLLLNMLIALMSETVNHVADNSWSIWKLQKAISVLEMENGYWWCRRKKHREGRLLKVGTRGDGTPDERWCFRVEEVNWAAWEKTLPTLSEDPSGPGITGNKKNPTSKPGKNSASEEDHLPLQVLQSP
- PROTOCOL_DESCRIPTION: TRPV2-mediated elevation of intracellular Ca2+ (Fluo-4) in transfected HEK-293 cells
- Format: cell-based
- PARTICULARS: percentage of the response to ionomycin 4 μM; HEK-293
Measured TRPV2 Efficacy (% IM 4 μM) values are reported for all entries that follow.
MEASUREMENT_NAME: TRPV2 Efficacy (% IM 4 μM)

>  <COMPOUND>
CCCCC(C)(C)c1cc(O)c2c(c1)OC(C)(CCC=C(C)C)C=C2 (centres unmarked)

>  <RESULT>
<10%

$$$$
>  <COMPOUND>
CCCCCCC(C)(C)c1cc(O)c(C/C=C(\C)CCC=C(C)C)c(O)c1

>  <RESULT>
65.3 ± 0.7%

$$$$
>  <COMPOUND>
C=C(C)[C@@H]1CCC(C)=C[C@H]1c1c(O)cc(C(C)(C)CCCCCC)cc1O

>  <RESULT>
< 10%

$$$$
>  <COMPOUND>
CCCCCCCc1cc(O)c2c(c1)OC(C)(CCC=C(C)C)C=C2 (centres unmarked)

>  <RESULT>
<10%

$$$$
>  <COMPOUND>
CCCCCCC(C)(C)c1cc(O)c2c(c1)OC(C)(CCC=C(C)C)C=C2 (centres unmarked)

>  <RESULT>
76.1 ± 0.6%

$$$$

====

- TESTED_TARGET: rat TRPV4 (Rattus norvegicus, UniProt Q9ERZ8)
- Construct: expressed in transfected cells; host or cells: HEK-293
- Sequence (Q9ERZ8 whole entry): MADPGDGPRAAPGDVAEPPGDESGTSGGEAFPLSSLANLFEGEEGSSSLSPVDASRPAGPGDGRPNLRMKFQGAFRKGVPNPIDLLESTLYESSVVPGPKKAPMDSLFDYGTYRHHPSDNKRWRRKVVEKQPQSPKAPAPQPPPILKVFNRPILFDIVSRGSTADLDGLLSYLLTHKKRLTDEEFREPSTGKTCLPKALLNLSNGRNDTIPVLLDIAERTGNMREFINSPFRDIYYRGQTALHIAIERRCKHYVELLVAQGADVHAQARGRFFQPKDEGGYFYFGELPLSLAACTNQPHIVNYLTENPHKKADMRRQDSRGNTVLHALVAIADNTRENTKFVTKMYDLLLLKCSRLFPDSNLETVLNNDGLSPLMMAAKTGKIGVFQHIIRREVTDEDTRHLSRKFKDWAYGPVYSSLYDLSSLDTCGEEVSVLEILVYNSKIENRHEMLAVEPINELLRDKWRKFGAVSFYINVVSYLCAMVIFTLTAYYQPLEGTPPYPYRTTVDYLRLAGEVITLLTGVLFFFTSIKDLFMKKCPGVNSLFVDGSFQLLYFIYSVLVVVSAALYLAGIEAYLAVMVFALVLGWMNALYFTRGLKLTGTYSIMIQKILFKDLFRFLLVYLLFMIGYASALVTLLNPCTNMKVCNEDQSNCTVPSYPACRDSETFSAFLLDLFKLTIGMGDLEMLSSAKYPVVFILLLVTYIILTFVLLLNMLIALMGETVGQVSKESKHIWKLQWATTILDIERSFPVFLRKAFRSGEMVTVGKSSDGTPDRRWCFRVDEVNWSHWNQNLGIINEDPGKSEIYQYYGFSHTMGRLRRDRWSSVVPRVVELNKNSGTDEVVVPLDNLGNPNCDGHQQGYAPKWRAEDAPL
- PROTOCOL_DESCRIPTION: TRPV4-mediated elevation of intracellular Ca2+ (Fluo-4) in transfected HEK-293 cells
- Assay type: cell-based

>  <STRUCTURE_NOTATION>
CCCCCCC(C)(C)c1cc(O)c2c(c1)OC(C)(C)[C@@H]1CC=C(C)C[C@@H]21

>  <EC50, µM>
16.1

$$$$

====

- TESTED_TARGET: human TRPV1 (Homo sapiens)
- Sequence (Q8NER1 whole entry): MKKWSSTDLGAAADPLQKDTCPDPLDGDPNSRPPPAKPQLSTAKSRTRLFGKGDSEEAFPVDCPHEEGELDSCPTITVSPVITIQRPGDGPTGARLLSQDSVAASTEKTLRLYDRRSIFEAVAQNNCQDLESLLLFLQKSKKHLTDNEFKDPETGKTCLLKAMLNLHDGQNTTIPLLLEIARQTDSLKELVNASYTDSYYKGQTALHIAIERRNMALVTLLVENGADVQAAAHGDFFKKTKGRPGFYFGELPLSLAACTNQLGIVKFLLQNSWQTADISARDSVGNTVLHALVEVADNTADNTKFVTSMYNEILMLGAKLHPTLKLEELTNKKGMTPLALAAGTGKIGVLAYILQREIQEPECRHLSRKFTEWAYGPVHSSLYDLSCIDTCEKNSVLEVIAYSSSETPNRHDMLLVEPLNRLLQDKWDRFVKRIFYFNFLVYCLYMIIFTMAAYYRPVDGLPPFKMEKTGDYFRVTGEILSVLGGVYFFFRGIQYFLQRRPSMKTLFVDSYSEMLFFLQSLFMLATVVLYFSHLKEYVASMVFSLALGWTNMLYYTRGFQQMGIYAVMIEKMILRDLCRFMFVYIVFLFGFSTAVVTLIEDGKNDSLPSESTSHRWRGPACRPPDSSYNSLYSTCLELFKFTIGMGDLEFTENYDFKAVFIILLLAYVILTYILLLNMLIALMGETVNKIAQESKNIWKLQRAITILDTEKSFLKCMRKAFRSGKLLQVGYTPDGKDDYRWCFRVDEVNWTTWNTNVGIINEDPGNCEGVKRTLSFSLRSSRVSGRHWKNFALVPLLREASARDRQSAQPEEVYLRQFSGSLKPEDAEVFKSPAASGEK
- PROTOCOL_DESCRIPTION: TRPV1-mediated elevation of intracellular Ca2+ (Fluo-4) in transfected HEK-293 cells
pEC50: −log10 of the molar value.
Measured pEC50 values are reported for all entries that follow.
MEASUREMENT_NAME: pEC50

>  <MOLECULE>
CCCCCCC(C)(C)c1cc(O)c2c(c1)OC(C)(C)[C@@H]1CC=C(C)C[C@@H]21

>  <MEASUREMENT_NAME>
pEC50

>  <SIGN_QUALIFIER>
<

>  <NUMBER>
4.00

$$$$
>  <MOLECULE>
CCCCCCC(C)(C)c1cc(O)c2c(c1)OC(C)(CCC=C(C)C)C=C2 (centres unmarked)

>  <MEASUREMENT_NAME>
pEC50

>  <SIGN_QUALIFIER>
=

>  <NUMBER>
4.89

$$$$

====

Measured IC50 values are reported for all entries that follow.
- TESTED_TARGET: rat TRPV4 (Rattus norvegicus, UniProt Q9ERZ8)
- Construct: expressed in transfected cells; host or cells: HEK-293
- PROTOCOL_DESCRIPTION: TRPV4-mediated elevation of intracellular Ca2+ (Fluo-4) in transfected HEK-293 cells
- Format: cell-based
MEASUREMENT_NAME: IC50

>  <MOLECULE>
CCCCCCC(C)(C)c1cc(O)c2c(c1)OC(C)(CCC=C(C)C)C=C2 (centres unmarked)

>  <RESULT>
> 100 µM

$$$$
>  <MOLECULE>
CCCCCCC(C)(C)c1cc(O)c2c(c1)OC(C)(C)[C@@H]1CC=C(C)C[C@@H]21

>  <RESULT>
> 100 µM

$$$$

Reference source: paper PMC8391922
